All values here come from patent US8568763B2.

Assay: in vivo
Conditions: mongrel, pig
measured_property: concentration at 3 day (ng/mL)
Use ng/mL as the unit, but write only the number.

Q: Any idea what its concentration at 3 day is? The compound is `CO[C@H]1C[C@@H]2CC[C@@H](C)[C@@](O)(O2)C(=O)C(=O)N2CCCC[C@H]2C(=O)O[C@H]([C@H](C)C[C@@H]2CC[C@@H](O)[C@H](OC)C2)CC(=O)[C@H](C)/C=C(\C)[C@@H](O)[C@@H](OC)C(=O)[C@H](C)C[C@H](C)/C=C/C=C/C=C/1C`
Ans: 1.9

----------
Assay: in vivo
Conditions: mongrel, pig
measured_property: concentration at 2 day (ng/mL)
Use ng/mL as the unit, but write only the number.

Q: Any idea what its concentration at 2 day is? The compound is `CO[C@H]1C[C@@H]2CC[C@@H](C)[C@@](O)(O2)C(=O)C(=O)N2CCCC[C@H]2C(=O)O[C@H]([C@H](C)C[C@@H]2CC[C@@H](O)[C@H](OC)C2)CC(=O)[C@H](C)/C=C(\C)[C@@H](O)[C@@H](OC)C(=O)[C@H](C)C[C@H](C)/C=C/C=C/C=C/1C`
Ans: 2
